Target: UniProt:P51639
Sequence (P51639 whole entry): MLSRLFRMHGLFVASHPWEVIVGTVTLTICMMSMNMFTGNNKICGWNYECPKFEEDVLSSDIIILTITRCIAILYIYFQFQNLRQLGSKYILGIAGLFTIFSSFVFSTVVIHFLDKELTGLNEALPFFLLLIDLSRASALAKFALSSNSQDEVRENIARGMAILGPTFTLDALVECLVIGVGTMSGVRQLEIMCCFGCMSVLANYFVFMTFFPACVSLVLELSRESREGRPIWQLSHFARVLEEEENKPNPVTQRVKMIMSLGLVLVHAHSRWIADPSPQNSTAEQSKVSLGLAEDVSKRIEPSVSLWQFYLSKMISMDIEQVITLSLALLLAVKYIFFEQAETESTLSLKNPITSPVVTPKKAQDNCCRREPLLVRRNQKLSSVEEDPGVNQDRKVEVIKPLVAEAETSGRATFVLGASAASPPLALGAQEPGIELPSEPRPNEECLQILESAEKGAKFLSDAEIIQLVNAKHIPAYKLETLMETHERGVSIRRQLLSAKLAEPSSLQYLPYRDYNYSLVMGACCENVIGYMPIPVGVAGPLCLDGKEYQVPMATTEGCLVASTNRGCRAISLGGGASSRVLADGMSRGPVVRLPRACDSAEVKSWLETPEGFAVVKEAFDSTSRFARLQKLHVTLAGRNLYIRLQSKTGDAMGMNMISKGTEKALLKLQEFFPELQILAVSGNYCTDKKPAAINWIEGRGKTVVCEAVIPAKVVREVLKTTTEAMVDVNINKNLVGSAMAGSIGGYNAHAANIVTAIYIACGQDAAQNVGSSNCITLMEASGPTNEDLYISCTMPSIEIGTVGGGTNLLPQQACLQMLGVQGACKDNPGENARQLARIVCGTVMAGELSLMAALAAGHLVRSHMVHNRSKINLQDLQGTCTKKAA
Experiment: In vitro inhibition of HMG-CoA reductase in solubilized rat liver.
Measured attribute: IC50 (nM)

Tell us which IC50 value is on record for Cc1cc(C(c2ccc(F)c(C)c2)c2cc(Cl)cc(Cl)c2OCC(O)C[C@@H](O)CC(=O)O)ccc1F (stereo not given in full)
1000

Given Cc1cccc(CCCOc2ccc(F)cc2)c1OCC(O)C[C@@H](O)CC(=O)O (stereo not given in full) , respond with its IC50.
250

Note IC50 for the compound shown: Cc1c(OCC(O)C[C@@H](O)CC(=O)O)c(-c2ccc(F)cc2)nc2ccccc12 (stereo not given in full)
1000

Output measured IC50 for this item: O=C([O-])C[C@H](O)CC(O)COc1c(Cl)cc(Cl)cc1C(c1ccc(F)cc1)c1ccc(F)cc1.[Na+] (stereo in doubt; 11b)
50

(a) CCC(C)(C)OC(=O)C(c1cc(C)cc(C)c1OCC(O)C[C@@H](O)CC(=O)O)C1CCCCC1 (stereo in doubt; 11s)
(b) Cc1cc(C)c(OCC(O)C[C@@H](O)CC(=O)O)c(C(c2ccc(F)cc2)c2ccc(F)cc2)c1 (stereo not given in full)
Could you check which of a and b has a smaller value for IC50? Kindly state the label of the option you pick.
b

====

target: 3-hydroxy-3-methylglutaryl-coenzyme A reductase (Rattus norvegicus, UniProt P51639); assay: In vitro inhibition of HMG-CoA reductase in solubilized rat liver.
pIC50: −log10 of the molar value.
Measured attribute: pIC50

Note pIC50 for the molecule shown: CC(C)c1cc(Sc2ccc(F)cc2)cc(-c2ccc(F)cc2)c1OCC(O)C[C@@H](O)CC(=O)[O-].[Na+] (stereo not given in full)
8.22

Report pIC50, nothing else, for this molecule: Cc1cc(C)c(OCC(O)C[C@@H](O)CC(=O)O)c(C(c2ccc(F)cc2)C2CCCCC2)c1 (stereo not given in full)
7.02

Provide pIC50 value for the following molecule: Cc1cc(C)c(OCC(O)C[C@@H](O)CC(=O)O)c(CC2CCCCC2)c1 (stereo not given in full)
7.00

(1) Cc1cc(Cl)cc(CC2CCCCC2)c1OCC(O)C[C@@H](O)CC(=O)O (stereo not given in full)
(2) CC(C)c1cc(-c2ccc(F)cc2)cc(-c2ccc(F)cc2)c1OCC(O)C[C@@H](O)CC(=O)[O-].[Na+] (stereo not given in full)
In the pair 1 and 2 , the larger recorded pIC50 belongs to which? // output: label of the selected item
2
(2: 7.77, 1: 7.12)

Source of measurements: ChEMBL document CHEMBL1125911
